Each recorded value in this set is attributed to ChEMBL document CHEMBL1142080.

Tested on: Rhizopus
PROCEDURE_SUMMARY: Antifungal activity against Rhizopus spp after 24 hrs
Format: functional
OBSERVABLE: MIC90 (µg/mL)
Give bare numbers, in µg/mL.

Record excerpt, results attached:
C[C@@H](c1ncncc1F)[C@](O)(Cn1cncn1)c1ccc(F)cc1F :: 16
C[C@@H]1[C@H](O)[C@@H](C)/C=C/C=C/C=C/C=C/C=C/C=C/C=C/[C@H](O[C@@H]2O[C@H](C)[C@@H](O)[C@H](N)[C@@H]2O)C[C@@H]2O[C@](O)(C[C@@H](O)C[C@@H](O)[C@H](O)CC[C@@H](O)C[C@@H](O)CC(=O)O[C@H]1C)C[C@H](O)[C@H]2C(=O)O :: 2

We now examine a further molecule.
Give its MIC90 value. Item: CC[C@@H]([C@H](C)O)n1ncn(-c2ccc(N3CCN(c4ccc(OC[C@@H]5CO[C@@](Cn6cncn6)(c6ccc(F)cc6F)C5)cc4)CC3)cc2)c1=O 0.5

----------
System: Cunninghamella
PROCEDURE_SUMMARY: Antifungal activity against Cunninghamella spp after 24 hrs
Assay type: functional
Give MIC90 for every item shown.
One number for each entry, in µg/mL.

Record excerpt, results attached:
C[C@@H]1[C@H](O)[C@@H](C)/C=C/C=C/C=C/C=C/C=C/C=C/C=C/[C@H](O[C@@H]2O[C@H](C)[C@@H](O)[C@H](N)[C@@H]2O)C[C@@H]2O[C@](O)(C[C@@H](O)C[C@@H](O)[C@H](O)CC[C@@H](O)C[C@@H](O)CC(=O)O[C@H]1C)C[C@H](O)[C@H]2C(=O)O :: 4
CC[C@@H]([C@H](C)O)n1ncn(-c2ccc(N3CCN(c4ccc(OC[C@@H]5CO[C@@](Cn6cncn6)(c6ccc(F)cc6F)C5)cc4)CC3)cc2)c1=O :: 0.5

We now examine a further compound.
Test system Cunninghamella; read-out MIC90; what value for CCC(C)n1ncn(-c2ccc(N3CCN(c4ccc(OCC5COC(Cn6cncn6)(c6ccc(Cl)cc6Cl)O5)cc4)CC3)cc2)c1=O (stereo not given) ? 4

----------
System: Cunninghamella
PROCEDURE_SUMMARY: Antifungal activity against Cunninghamella spp after 48 hrs
Assay type: functional
OBSERVABLE: MIC90 (µg/mL)
One number for each entry, in µg/mL.

Give its MIC90 value. Item: CC[C@@H]([C@H](C)O)n1ncn(-c2ccc(N3CCN(c4ccc(OC[C@@H]5CO[C@@](Cn6cncn6)(c6ccc(F)cc6F)C5)cc4)CC3)cc2)c1=O [POSACONAZOLE] 0.5

----------
System: Mucor
PROCEDURE_SUMMARY: Antifungal activity against Mucor spp after 48 hrs
Assay type: functional
Give MIC50 for every item shown.
One number for each entry, in µg/mL.

CCC(C)n1ncn(-c2ccc(N3CCN(c4ccc(OCC5COC(Cn6cncn6)(c6ccc(Cl)cc6Cl)O5)cc4)CC3)cc2)c1=O (stereo not given) :: 4

Give me MIC50 for each of these compounds, listed below.
1. CC[C@@H]([C@H](C)O)n1ncn(-c2ccc(N3CCN(c4ccc(OC[C@@H]5CO[C@@](Cn6cncn6)(c6ccc(F)cc6F)C5)cc4)CC3)cc2)c1=O
2. C[C@@H]1[C@H](O)[C@@H](C)/C=C/C=C/C=C/C=C/C=C/C=C/C=C/[C@H](O[C@@H]2O[C@H](C)[C@@H](O)[C@H](N)[C@@H]2O)C[C@@H]2O[C@](O)(C[C@@H](O)C[C@@H](O)[C@H](O)CC[C@@H](O)C[C@@H](O)CC(=O)O[C@H]1C)C[C@H](O)[C@H]2C(=O)O

1: 0.5; 2: 1
